Attribution: ChEMBL document CHEMBL1158401

Ratio pKi by entry:
Protocol Notes: Selectivity ratio of pKi for human cloned CB2 receptor to pKi for CB1 receptor in rat brain
Assay type: tissue-based
I'd appreciate a reply containing only the number, no unit.

CCCCCn1c(C)c(C(=O)Cc2ccccc2F)c2ccccc21 : 0.96
CCCCCn1cc(C(=O)Cc2ccccc2OC)c2ccccc21 : 0.94

Request: State the recorded Ratio pKi for this entry: CCCCCn1c(C)c(C(=O)Cc2cccc(F)c2)c2ccccc21
Response: 1.06

Request: Consider the compound CCCCc1ccc(C(=O)c2c(C)n(CCC)c3ccccc23)c2ccccc12 and give its measured Ratio pKi.
Response: 1.07

Request: Record request: Ratio pKi value, item CCCCCn1cc(C(=O)c2ccc(CC)c3ccccc23)c2ccccc21
Response: 0.981

Request: GET /values?readout=Ratio pKi&item= CCCn1c(C)c(C(=O)c2cccc3ccc(C)cc23)c2ccccc21
Response: 1.21

Request: For CCCn1cc(C(=O)c2ccc(OCC)c3ccccc23)c2ccccc21 , what is its reported Ratio pKi?
Response: 1.07

Request: Query (compound): CCCCCn1cc(C(=O)c2cccc3ccccc23)c2ccccc21 ; field requested: Ratio pKi
Response: 1.06

Request: # Ratio pKi lookup, item CCCn1cc(C(=O)c2cccc3ccc(C)cc23)c2ccccc21
Response: 1.04
